test system: HOP-92 NSCLC; assay: NCI-60 one-dose screen, 48 h (100 = growth as untreated, 0 = no growth, -100 = all killed); settings: 10 µM unless noted
Compounds without any hit were thinned out: in the full panel of roughly 83,000, 20% have a hit.
Each record here notes measured growth.
Answer in %, number only, no unit symbol.

Field: example entries. Status: answers known.
INSERT INTO assay_data (compound, value_reported) VALUES
  ('COc1c2ccoc2c(/C=C/C=O)c2oc(-c3ccccc3)cc(=O)c12', 105),
  ('Cc1cccc2c(=O)c3c(sc12)c(N1CCNCC1)nc1ccccc13', 53.7),
  ('O=C1NC(=O)C(=Cc2cn(Cc3cn(Cc4ccc(Cl)cc4Cl)nn3)c3ccccc23)C(=O)N1', 92.6),
  ('O=NN(C(=O)NC1CCC(C(=O)O)CC1)C1CCC(C(=O)O)CC1 (stereo not given)', 98.8);

Query compound follows.
get_value(item= `Oc1ccc(-c2nc(-c3ccc4oc5ccc(-c6[nH]c(-c7ccc(O)cc7)nc6-c6ccccc6)cc5c4c3)c(-c3ccccc3)[nH]2)cc1` , readout=growth) returns 25.7

Origin of values: PubChem BioAssay (NCI)
